Reported Tmax values are given for each entry in this list.
EXPERIMENT_SUMMARY: Tmax in human plasma at 30 mg administered qd for 3 days followed by 60 mg administration at qd for next 11 days measured on day 14 post last dose by LC-MS/MS analysis
Type: ADME, organism-based
QUANTITY_KIND: Tmax (h)

>  <STRUCTURE>
CN(C)C[C@]1(c2ccc(Cl)c(Cl)c2)CC[C@@](C)(O)CC1

>  <MEASURED>
4

$$$$
>  <STRUCTURE>
CNC[C@]1(c2ccc(Cl)c(Cl)c2)CC[C@](C)(O)CC1

>  <MEASURED>
6

$$$$

----------
Reported pKi values are given for each entry in this list.
TARGET_UNDER_TEST: UniProt P23975
Sequence (P23975 whole entry): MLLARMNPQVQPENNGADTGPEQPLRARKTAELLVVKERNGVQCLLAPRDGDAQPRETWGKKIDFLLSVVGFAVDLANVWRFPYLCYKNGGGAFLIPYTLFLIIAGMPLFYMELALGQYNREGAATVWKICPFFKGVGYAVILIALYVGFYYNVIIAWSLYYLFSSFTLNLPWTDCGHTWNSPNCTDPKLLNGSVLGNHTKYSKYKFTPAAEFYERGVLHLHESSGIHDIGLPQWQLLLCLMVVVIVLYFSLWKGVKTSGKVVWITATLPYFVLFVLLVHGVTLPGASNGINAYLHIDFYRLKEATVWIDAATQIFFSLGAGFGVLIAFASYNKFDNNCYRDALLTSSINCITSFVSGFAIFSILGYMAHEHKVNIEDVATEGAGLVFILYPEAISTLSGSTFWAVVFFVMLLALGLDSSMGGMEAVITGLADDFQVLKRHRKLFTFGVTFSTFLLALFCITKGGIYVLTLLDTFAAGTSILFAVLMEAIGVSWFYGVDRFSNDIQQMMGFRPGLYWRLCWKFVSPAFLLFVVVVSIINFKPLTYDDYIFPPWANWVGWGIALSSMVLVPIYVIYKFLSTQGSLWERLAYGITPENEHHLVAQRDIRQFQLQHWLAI
EXPERIMENT_SUMMARY: Binding affinity to human NET
pKi: −log10 of the molar value.

>  <COMPOUND>
Clc1ccc(C2CCNCC23CCOCC3)cc1Cl (stereo in doubt; 172)

>  <TARGET_UNDER_TEST>
UniProt P23975

>  <pKi>
8.40

$$$$
>  <COMPOUND>
Clc1ccc(C2CCNCC23CCOCC3)cc1Cl (racemic)

>  <TARGET_UNDER_TEST>
UniProt P23975

>  <pKi>
8.00

$$$$
>  <COMPOUND>
Clc1ccc([C@@H]2CCN[C@@H]3CCOC[C@@H]32)cc1Cl

>  <TARGET_UNDER_TEST>
UniProt P23975

>  <pKi>
7.30

$$$$
>  <COMPOUND>
COC[C@H]1CN[C@H]2CC[C@]1(c1ccc(Cl)c(Cl)c1)C2

>  <TARGET_UNDER_TEST>
UniProt P23975

>  <pKi>
10.10

$$$$

----------
TARGET_UNDER_TEST: Sodium-dependent serotonin transporter (Homo sapiens, UniProt P31645)
Sequence (P31645 whole entry): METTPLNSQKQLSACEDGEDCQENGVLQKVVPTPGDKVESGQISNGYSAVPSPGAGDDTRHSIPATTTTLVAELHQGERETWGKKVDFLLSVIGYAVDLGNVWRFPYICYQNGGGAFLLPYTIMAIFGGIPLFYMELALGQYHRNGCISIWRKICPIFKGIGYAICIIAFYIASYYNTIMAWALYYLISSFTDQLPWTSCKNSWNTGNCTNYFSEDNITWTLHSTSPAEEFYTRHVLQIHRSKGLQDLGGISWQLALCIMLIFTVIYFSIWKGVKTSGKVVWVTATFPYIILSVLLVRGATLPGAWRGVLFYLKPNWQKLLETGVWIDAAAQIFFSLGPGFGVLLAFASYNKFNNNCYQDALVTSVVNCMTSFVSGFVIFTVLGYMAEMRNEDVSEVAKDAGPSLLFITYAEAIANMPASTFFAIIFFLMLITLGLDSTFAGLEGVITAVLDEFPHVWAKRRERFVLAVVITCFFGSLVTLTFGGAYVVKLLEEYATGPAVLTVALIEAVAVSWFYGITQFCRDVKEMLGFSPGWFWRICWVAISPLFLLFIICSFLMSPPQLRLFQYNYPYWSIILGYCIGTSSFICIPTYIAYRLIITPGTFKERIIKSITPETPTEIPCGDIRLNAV
EXPERIMENT_SUMMARY: Inhibition of SERT (unknown origin)-mediated uptake

>  <STRUCTURE>
CN(C)C[C@]1(c2ccc(Cl)c(Cl)c2)CC[C@@](C)(O)CC1

>  <COMPARISON_SIGN>
=

>  <IC50 / nM>
34

$$$$
>  <STRUCTURE>
C[C@]1(O)CC[C@@](CN)(c2ccc(Cl)c(Cl)c2)CC1

>  <COMPARISON_SIGN>
>

>  <IC50 / nM>
10000

$$$$
>  <STRUCTURE>
CNC[C@]1(c2ccc(Cl)c(Cl)c2)CC[C@](C)(O)CC1

>  <COMPARISON_SIGN>
=

>  <IC50 / nM>
210

$$$$
>  <STRUCTURE>
C[C@]1(O)CC[C@](CN)(c2ccc(Cl)c(Cl)c2)CC1

>  <COMPARISON_SIGN>
=

>  <IC50 / nM>
1190

$$$$
